Assayed System: SST2 (Homo sapiens, UniProt P30874)
Construct: host or cells: PathHunter CHO-K1 SST2 cells
Sequence (P30874 whole entry): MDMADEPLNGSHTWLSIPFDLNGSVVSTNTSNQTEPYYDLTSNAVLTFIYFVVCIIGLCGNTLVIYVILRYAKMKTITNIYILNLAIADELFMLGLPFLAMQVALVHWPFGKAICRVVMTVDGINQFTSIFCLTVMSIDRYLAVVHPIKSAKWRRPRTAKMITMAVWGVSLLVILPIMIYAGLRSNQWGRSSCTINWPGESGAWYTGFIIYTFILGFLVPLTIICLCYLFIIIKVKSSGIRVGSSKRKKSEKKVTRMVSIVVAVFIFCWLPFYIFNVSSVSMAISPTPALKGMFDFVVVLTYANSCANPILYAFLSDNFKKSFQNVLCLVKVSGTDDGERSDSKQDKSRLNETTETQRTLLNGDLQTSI
Run Description: PathHunter CHO-K1 SST2 Internalization Assay
Format: cell-based
Test Settings: PathHunter CHO-K1 SST2 cells; 90 min at 37 C; luminescence; read-out: Internalization EC50
Description: NDCs of the present invention were assessed in vitro using the human PathHunter CHO-K1 SST2 β-arrestin2 and PathHunter CHO-K1 SST2 Internalization Assays from DiscoverX. The CHO-K cells were seeded in 20 μLs of cell culture medium in a white-walled 384 well tissue culture-compatible plate at a density of 2500 cells/well. […] Luminescence was measured using a Tecan plate reader. […]

>  <Molecule>
CC[C@H](C)[C@@H]([C@@H](CC(=O)N1CCC[C@H]1[C@H](OC)[C@@H](C)C(=O)N[C@H](C)[C@@H](O)c1ccccc1)OC)N(C)C(=O)[C@@H](NC(=O)[C@H](C(C)C)N(C)C(=O)OCc1ccc(NC(=O)[C@H](CCCNC(N)=O)NC(=O)[C@@H](NC(=O)[C@H](Cc2c[nH]c3ccccc23)NC(=O)CCOCCC(=O)NCCNc2ncc(-c3cc(C)cc(F)c3)c(N3CCC(N)CC3)c2-c2nc3ccc(Cl)cc3[nH]2)C(C)C)cc1C(=O)NCCN)C(C)C

>  <EC50>
3.6 nM

$$$$
>  <Molecule>
CC[C@H](C)[C@@H]([C@@H](CC(=O)N1CCC[C@H]1[C@H](OC)[C@@H](C)C(=O)N[C@H](C)[C@@H](O)c1ccccc1)OC)N(C)C(=O)[C@@H](NC(=O)[C@H](C(C)C)N(C)C(=O)OCc1ccc(NC(=O)[C@H](CCCNC(N)=O)NC(=O)[C@@H](NC(=O)CCCC(=O)N(C)CC(=O)NCCNc2ncc(-c3cc(C)cc(F)c3)c(N3CCC(N)CC3)c2-c2nc3ccc(Cl)cc3[nH]2)C(C)C)c(O[C@@H]2O[C@H](C(=O)NCCN)[C@@H](O)[C@H](O)[C@H]2O)c1)C(C)C

>  <EC50>
2.7 nM

$$$$
>  <Molecule>
CC[C@H](C)[C@@H]([C@@H](CC(=O)N1CCC[C@H]1[C@H](OC)[C@@H](C)C(=O)N[C@H](C)[C@@H](O)c1ccccc1)OC)N(C)C(=O)[C@@H](NC(=O)[C@H](C(C)C)N(C)C(=O)OCc1ccc(NC(=O)[C@H](CCCNC(N)=O)NC(=O)[C@@H](NC(=O)CCOCCC(=O)NCCNc2ncc(-c3cc(C)cc(F)c3)c(N3CCC(N)CC3)c2-c2nc3ccc(Cl)cc3[nH]2)C(C)C)c(O[C@@H]2O[C@H](C(=O)NCCNC(=O)CCCCCO[PH](=O)OC3CCC(c4ccccc4)(c4ccccc4)CC3)[C@@H](O)[C@H](O)[C@H]2O)c1)C(C)C (stereo partly shown)

>  <EC50>
18 nM

$$$$
>  <Molecule>
CC[C@H](C)[C@@H]([C@@H](CC(=O)N1CCC[C@H]1[C@H](OC)[C@@H](C)C(=O)N[C@H](C)[C@@H](O)c1ccccc1)OC)N(C)C(=O)[C@@H](NC(=O)[C@H](C(C)C)N(C)C(=O)OCc1ccc(NC(=O)[C@H](C)NC(=O)[C@@H](NC(=O)C[C@@H](N)C(=O)NCCOCCC(=O)NCCNc2ncc(-c3cc(C)cc(F)c3)c(N3CCC(NC)CC3)c2-c2nc3ccc(Cl)cc3[nH]2)C(C)C)c(O[C@@H]2O[C@H](C(=O)O)[C@@H](O)[C@H](O)[C@H]2O)c1)C(C)C [Compound 120]

>  <EC50>
5.2 nM

$$$$

* * *

Assayed System: SST2 (Homo sapiens, UniProt P30874)
Construct: host or cells: PathHunter CHO-K1 SST2 cells
Run Description: PathHunter CHO-K1 SST2 Internalization Assay
Type: cell-based
Test Settings: PathHunter CHO-K1 SST2 cells; 90 min at 37 C; luminescence; read-out: Internalization EC50
pEC50: −log10 of the molar value. *1 amine or outer side, *2 acyl side, *3 side chain or, on linkers, in order; H or OH if unused. Where a SMILES comes first, the peptide text is derived from it. [ ]: non-standard residue; d: D form. The star is where a group is joined. X1 = Cc1cc(F)cc(-c2cnc(*)c(-c3nc4ccc(Cl)cc4[nH]3)c2N2CCC(N)CC2)c1; Dolaproine = CO[C@@H]([C@@H]1CCCN1)[C@@H](C)C(=O)O; Dil = CC[C@H](C)[C@H](NC)[C@@H](CC(=O)O)OC; PABC = O=C(OCc1ccc(N[*:1])cc1)[*:2]; X2 = C[C@@H](N*)[C@@H](O)c1ccccc1; Cit = NC(=O)NCCC[C@H](N)C(=O)O; PEG4 = NCCOCCOCCOCCOCCC(=O)O; NMeV = CN[C@H](C(=O)O)C(C)C; βAla = NCCC(=O)O
pEC50 reference

>  <Compound>
CC[C@H](C)[C@@H]([C@@H](CC(=O)N1CCC[C@H]1[C@H](OC)[C@@H](C)C(=O)N[C@H](C)[C@@H](O)c1ccccc1)OC)N(C)C(=O)[C@@H](NC(=O)[C@H](C(C)C)N(C)C(=O)OCc1ccc(NC(=O)[C@H](CCCNC(N)=O)NC(=O)[C@@H](NC(=O)c2cc(C(=O)NCC(=O)O)cc(N(C)CCOCCC(=O)NCCNc3ncc(-c4cc(C)cc(F)c4)c(N4CCC(N)CC4)c3-c3nc4ccc(Cl)cc4[nH]3)c2)C(C)C)cc1)C(C)C

>  <pEC50>
8.29

$$$$
>  <Compound>
CC[C@H](C)[C@@H]([C@@H](CC(=O)N1CCC[C@H]1[C@H](OC)[C@@H](C)C(=O)N[C@H](C)[C@@H](O)c1ccccc1)OC)N(C)C(=O)[C@@H](NC(=O)[C@H](C(C)C)N(C)C(=O)OCc1ccc(NC(=O)[C@H](CCCNC(N)=O)NC(=O)[C@@H](NC(=O)[C@H](CCC(=O)O)NC(=O)CCOCCC(=O)NCCNc2ncc(-c3cc(C)cc(F)c3)c(N3CC[C@H]4NCCC[C@@H]4C3)c2-c2nc3ccc(Cl)cc3[nH]2)C(C)C)cc1C(=O)NCCN)C(C)C

>  <pEC50>
6.04

$$$$
>  <Compound>
CC[C@H](C)[C@@H]([C@@H](CC(=O)N1CCC[C@H]1[C@H](OC)[C@@H](C)C(=O)N[C@H](C)[C@@H](O)c1ccccc1)OC)N(C)C(=O)[C@@H](NC(=O)[C@H](C(C)C)N(C)C(=O)OCc1ccc(NC(=O)[C@H](CCCNC(N)=O)NC(=O)[C@@H](NC(=O)CCOCCOCCOCCOCCNC(=O)CCNc2ncc(-c3cc(C)cc(F)c3)c(N3CCC(N)CC3)c2-c2nc3ccc(Cl)cc3[nH]2)C(C)C)cc1)C(C)C [Compound 196] ({X1-βAla-PEG4}-V[Cit][PABC][NMeV]V[Dil][Dolaproine]-X2)

>  <pEC50>
8.07

$$$$
>  <Compound>
CC[C@H](C)[C@@H]([C@@H](CC(=O)N1CCC[C@H]1[C@H](OC)[C@@H](C)C(=O)N[C@H](C)[C@@H](O)c1ccccc1)OC)N(C)C(=O)[C@@H](NC(=O)[C@H](C(C)C)N(C)C(=O)OCc1ccc(NC(=O)[C@H](CCCNC(N)=O)NC(=O)[C@@H](NC(=O)c2cc(NCCOCCC(=O)NCCNc3ncc(-c4cc(C)cc(F)c4)c(N4CCC(N)CC4)c3-c3nc4ccc(Cl)cc4[nH]3)cc(C(=O)NCCN)c2)C(C)C)cc1)C(C)C

>  <pEC50>
8.74

$$$$

* * *

Assayed System: human somatostatin receptor subtype 2 (Homo sapiens, UniProt P30874)
Construct: expressed in transfected cells
Sequence (P30874 whole entry): as above
Run Description: Functional assay for SSTR2 agonists (HTRF cAMP)
Type: cell-based
Test Settings: CHO-K1 cells stably expressing human SST2; NKH477-stimulated cAMP; 20 min at 37 C; read-out: hSST2 cAMP Avg EC50
Please respond with 1 (yes) when measured EC50 is strictly beneath 200 pM, and with 0 (no) in all other cases.

>  <Compound>
CC[C@H](C)[C@@H]([C@@H](CC(=O)N1CCC[C@H]1[C@H](OC)[C@@H](C)C(=O)N[C@H](C)[C@@H](O)c1ccccc1)OC)N(C)C(=O)[C@@H](NC(=O)[C@H](C(C)C)N(C)C(=O)OCc1ccc(NC(=O)[C@H](C)NC(=O)[C@@H](NC(=O)CCOCCC(=O)NCCNc2ncc(-c3cc(C)cc(F)c3)c(N3CCC(N)CC3)c2-c2cc3ccc(Cl)cc3[nH]2)C(C)C)c(O[C@@H]2O[C@H](C(=O)O)[C@@H](O)[C@H](O)[C@H]2O)c1)C(C)C

>  <Class>
1 (yes)

$$$$
>  <Compound>
CC[C@H](C)[C@@H]([C@@H](CC(=O)N1CCC[C@H]1[C@H](OC)[C@@H](C)C(=O)N[C@H](C)[C@@H](O)c1ccccc1)OC)N(C)C(=O)[C@@H](NC(=O)[C@H](C(C)C)N(C)C(=O)OCc1ccc(NC(=O)[C@H](CCCNC(N)=O)NC(=O)[C@@H](NC(=O)[C@H](CCCO)NC(=O)CCOCCC(=O)NCCNc2ncc(-c3cc(C)cc(F)c3)c(N3CCC(N)CC3)c2-c2nc3cc(Cl)ccc3[nH]2)C(C)C)c(O[C@@H]2O[C@H](C(=O)NCC(=O)O)[C@@H](O)[C@H](O)[C@H]2O)c1)C(C)C [Compound 219]

>  <Class>
1 (yes)

$$$$
>  <Compound>
CC[C@H](C)[C@@H]([C@@H](CC(=O)N1CCC[C@H]1[C@H](OC)[C@@H](C)C(=O)N[C@H](C)[C@@H](O)c1ccccc1)OC)N(C)C(=O)[C@@H](NC(=O)[C@H](C(C)C)N(C)C(=O)OCc1ccc(NC(=O)[C@H](CCCNC(N)=O)NC(=O)[C@@H](NC(=O)CCOCCC(=O)NCCNc2ncc(-c3cc(C)cc(F)c3)c(N3CCC(N)CC3)c2-c2cc3ccc(Cl)cc3[nH]2)C(C)C)c(O[C@@H]2C[C@H](C(=O)NCCN)[C@@H](O)[C@H](O)[C@H]2O)c1)C(C)C

>  <Class>
0 (no)

$$$$
>  <Compound>
CC[C@H](C)[C@@H]([C@@H](CC(=O)N1CCC[C@H]1[C@H](OC)[C@@H](C)C(=O)N[C@H](C)[C@@H](O)c1ccccc1)OC)N(C)C(=O)[C@@H](NC(=O)[C@H](C(C)C)N(C)C(=O)OCc1ccc(NC(=O)[C@H](CCCNC(N)=O)NC(=O)[C@@H](NC(=O)CCOCCC(=O)NCCNc2ncc(-c3cc(C)cc(F)c3)c(N3CCC(N)CC3)c2-c2nc3ccc(Cl)cc3[nH]2)C(C)C)c(O[C@@H]2O[C@H](C(=O)NCCNC(=O)CCC(=O)NS(=O)(=O)c3ccc4ccccc4c3)[C@@H](O)[C@H](O)[C@H]2O)c1)C(C)C

>  <Class>
1 (yes)

$$$$
>  <Compound>
CC[C@H](C)[C@@H]([C@@H](CC(=O)N1CCC[C@H]1[C@H](OC)[C@@H](C)C(=O)N[C@H](C)[C@@H](O)c1ccccc1)OC)N(C)C(=O)[C@@H](NC(=O)[C@H](C(C)C)N(C)C(=O)OCc1ccc(NC(=O)[C@H](C)NC(=O)[C@@H](NS(=O)(=O)C[C@H](C)NC(=O)CCOCCC(=O)NCCNc2ncc(-c3cc(C)cc(F)c3)c(N3CCC(N)CC3)c2-c2nc3ccc(Cl)cc3[nH]2)C(C)C)c(O[C@@H]2O[C@H](C(=O)N(C)CC(=O)O)[C@@H](O)[C@H](O)[C@H]2O)c1)C(C)C

>  <Class>
1 (yes)

$$$$
>  <Compound>
CC[C@H](C)[C@@H]([C@@H](CC(=O)N1CCC[C@H]1[C@H](OC)[C@@H](C)C(=O)N[C@H](C)[C@@H](O)c1ccccc1)OC)N(C)C(=O)[C@@H](NC(=O)[C@H](C(C)C)N(C)C(=O)OCc1ccc(NC(=O)[C@H](CCCNC(N)=O)NC(=O)[C@@H](NC(=O)[C@H](CCC(=O)O)NC(=O)CCOCCC(=O)NCCNc2ncc(-c3cc(C)cc(F)c3)c(N3CCC(N)CC3)c2-c2nc3ccc(Cl)cc3[nH]2)C(C)C)cc1C(=O)NOCCN)C(C)C

>  <Class>
0 (no)

$$$$
>  <Compound>
CC[C@H](C)[C@@H]([C@@H](CC(=O)N1CCC[C@H]1[C@H](OC)[C@@H](C)C(=O)N[C@H](C)[C@@H](O)c1ccccc1)OC)N(C)C(=O)[C@@H](NC(=O)[C@H](C(C)C)N(C)C(=O)OCc1ccc(NC(=O)[C@H](C)NC(=O)[C@@H](NC(=O)CCOCCC(=O)NCCNc2ncc(-c3cc(C)cc(F)c3)c(N3CCC(N)CC3)c2-c2cc3ccc(OC)cc3[nH]2)C(C)C)c(O[C@@H]2O[C@H](C(=O)O)[C@@H](O)[C@H](O)[C@H]2O)c1)C(C)C

>  <Class>
0 (no)

$$$$
>  <Compound>
CC[C@H](C)[C@@H]([C@@H](CC(=O)N1CCC[C@H]1[C@H](OC)[C@@H](C)C(=O)N[C@H](C)[C@@H](O)c1ccccc1)OC)N(C)C(=O)[C@@H](NC(=O)[C@H](C(C)C)N(C)C(=O)OCc1ccc(NC(=O)[C@H](CCCNC(N)=O)NC(=O)[C@@H](NC(=O)CCOCCOCCOCCOCCNc2ncc(C(=O)NCCNc3ncc(-c4cc(C)cc(F)c4)c(N4CCC(N)CC4)c3-c3nc4ccc(Cl)cc4[nH]3)cn2)C(C)C)cc1)C(C)C

>  <Class>
0 (no)

$$$$
>  <Compound>
CC[C@@H](C)[C@H]([C@H](CC(=O)N1CCCC1[C@@H](OC)[C@H](C)C(=O)N[C@@H](C)[C@H](O)c1ccccc1)OC)N(C)C(=O)[C@H](NC(=O)[C@@H](C(C)C)N(C)C(=O)OCc1ccc(NC(=O)[C@H](C)NC(=O)[C@H](NC(=O)CCOCCC(=O)NCCNc2ncc(-c3cc(C)cc(F)c3)c(N3CCC(N)CC3)c2-c2nc3ccc(Cl)cc3[nH]2)C(C)C)c(O[C@H]2O[C@@H](C(=O)O)[C@H](O)[C@@H](O)[C@@H]2O)c1)C(C)C (stereo partly drawn)

>  <Class>
1 (yes)

$$$$
